- Test system: Staphylococcus epidermidis
- experimental-details: Antibacterial activity against methicillin-resistant Staphylococcus epidermidis 10-2 after 18 hrs by two fold serial dilution method
- Assay type: functional
- condition-set: 10-2, 18 h
readout-type: MIC (µg/mL)
One number for each entry, in µg/mL.

// worked examples, MIC included
NCC1CN(c2nc3c(cc2F)c(=O)c(C(=O)O)cn3-c2ccc(F)cc2F)C/C1=N\OC(F)F (racemic) : 1
NCC1CN(c2ccc3c(=O)c(C(=O)O)cn(C4CC4)c3n2)C/C1=N\OCF (racemic) : 64
CC1(CN)CN(c2ccc3c(=O)c(C(=O)O)cn(C4CC4)c3n2)C/C1=N\OCF (racemic) : 8
NCC1CN(c2nc3c(cc2F)c(=O)c(C(=O)O)cn3-c2ccc(F)cc2F)C/C1=N\OCF (racemic) : 8
COc1c(N2C[C@@H]3CCCN[C@@H]3C2)c(F)cc2c(=O)c(C(=O)O)cn(C3CC3)c12 [MOXIFLOXACIN] : 1

// each listed molecule needs a value for MIC
1. CO/N=C1\CN(c2nc3c(cc2F)c(=O)c(C(=O)O)cn3C2CC2)CC1CN (stereo not given) [GEMIFLOXACIN]
2. NCC1CN(c2nc3c(cc2F)c(=O)c(C(=O)O)cn3C2CC2)C/C1=N\OCF (racemic)

Marked response:
0.5
1

// each listed molecule needs a value for MIC
1. CC1(CN)CN(c2nc3c(cc2F)c(=O)c(C(=O)O)cn3C2CC2)C/C1=N\OCF (racemic)
2. O=C(O)c1cn(C2CC2)c2cc(N3CCNCC3)c(F)cc2c1=O [CIPROFLOXACIN]
3. NCC1CN(c2nc3c(cc2F)c(=O)c(C(=O)O)cn3C2CC2)C/C1=N\OC(F)F (racemic)

Marked response:
1: 0.5; 2: 8; 3: 0.25
